// values below are pIC50; system is HCV RdRp (NS5B) (UniProt P26663)
Sequence (P26663 whole entry, looked up): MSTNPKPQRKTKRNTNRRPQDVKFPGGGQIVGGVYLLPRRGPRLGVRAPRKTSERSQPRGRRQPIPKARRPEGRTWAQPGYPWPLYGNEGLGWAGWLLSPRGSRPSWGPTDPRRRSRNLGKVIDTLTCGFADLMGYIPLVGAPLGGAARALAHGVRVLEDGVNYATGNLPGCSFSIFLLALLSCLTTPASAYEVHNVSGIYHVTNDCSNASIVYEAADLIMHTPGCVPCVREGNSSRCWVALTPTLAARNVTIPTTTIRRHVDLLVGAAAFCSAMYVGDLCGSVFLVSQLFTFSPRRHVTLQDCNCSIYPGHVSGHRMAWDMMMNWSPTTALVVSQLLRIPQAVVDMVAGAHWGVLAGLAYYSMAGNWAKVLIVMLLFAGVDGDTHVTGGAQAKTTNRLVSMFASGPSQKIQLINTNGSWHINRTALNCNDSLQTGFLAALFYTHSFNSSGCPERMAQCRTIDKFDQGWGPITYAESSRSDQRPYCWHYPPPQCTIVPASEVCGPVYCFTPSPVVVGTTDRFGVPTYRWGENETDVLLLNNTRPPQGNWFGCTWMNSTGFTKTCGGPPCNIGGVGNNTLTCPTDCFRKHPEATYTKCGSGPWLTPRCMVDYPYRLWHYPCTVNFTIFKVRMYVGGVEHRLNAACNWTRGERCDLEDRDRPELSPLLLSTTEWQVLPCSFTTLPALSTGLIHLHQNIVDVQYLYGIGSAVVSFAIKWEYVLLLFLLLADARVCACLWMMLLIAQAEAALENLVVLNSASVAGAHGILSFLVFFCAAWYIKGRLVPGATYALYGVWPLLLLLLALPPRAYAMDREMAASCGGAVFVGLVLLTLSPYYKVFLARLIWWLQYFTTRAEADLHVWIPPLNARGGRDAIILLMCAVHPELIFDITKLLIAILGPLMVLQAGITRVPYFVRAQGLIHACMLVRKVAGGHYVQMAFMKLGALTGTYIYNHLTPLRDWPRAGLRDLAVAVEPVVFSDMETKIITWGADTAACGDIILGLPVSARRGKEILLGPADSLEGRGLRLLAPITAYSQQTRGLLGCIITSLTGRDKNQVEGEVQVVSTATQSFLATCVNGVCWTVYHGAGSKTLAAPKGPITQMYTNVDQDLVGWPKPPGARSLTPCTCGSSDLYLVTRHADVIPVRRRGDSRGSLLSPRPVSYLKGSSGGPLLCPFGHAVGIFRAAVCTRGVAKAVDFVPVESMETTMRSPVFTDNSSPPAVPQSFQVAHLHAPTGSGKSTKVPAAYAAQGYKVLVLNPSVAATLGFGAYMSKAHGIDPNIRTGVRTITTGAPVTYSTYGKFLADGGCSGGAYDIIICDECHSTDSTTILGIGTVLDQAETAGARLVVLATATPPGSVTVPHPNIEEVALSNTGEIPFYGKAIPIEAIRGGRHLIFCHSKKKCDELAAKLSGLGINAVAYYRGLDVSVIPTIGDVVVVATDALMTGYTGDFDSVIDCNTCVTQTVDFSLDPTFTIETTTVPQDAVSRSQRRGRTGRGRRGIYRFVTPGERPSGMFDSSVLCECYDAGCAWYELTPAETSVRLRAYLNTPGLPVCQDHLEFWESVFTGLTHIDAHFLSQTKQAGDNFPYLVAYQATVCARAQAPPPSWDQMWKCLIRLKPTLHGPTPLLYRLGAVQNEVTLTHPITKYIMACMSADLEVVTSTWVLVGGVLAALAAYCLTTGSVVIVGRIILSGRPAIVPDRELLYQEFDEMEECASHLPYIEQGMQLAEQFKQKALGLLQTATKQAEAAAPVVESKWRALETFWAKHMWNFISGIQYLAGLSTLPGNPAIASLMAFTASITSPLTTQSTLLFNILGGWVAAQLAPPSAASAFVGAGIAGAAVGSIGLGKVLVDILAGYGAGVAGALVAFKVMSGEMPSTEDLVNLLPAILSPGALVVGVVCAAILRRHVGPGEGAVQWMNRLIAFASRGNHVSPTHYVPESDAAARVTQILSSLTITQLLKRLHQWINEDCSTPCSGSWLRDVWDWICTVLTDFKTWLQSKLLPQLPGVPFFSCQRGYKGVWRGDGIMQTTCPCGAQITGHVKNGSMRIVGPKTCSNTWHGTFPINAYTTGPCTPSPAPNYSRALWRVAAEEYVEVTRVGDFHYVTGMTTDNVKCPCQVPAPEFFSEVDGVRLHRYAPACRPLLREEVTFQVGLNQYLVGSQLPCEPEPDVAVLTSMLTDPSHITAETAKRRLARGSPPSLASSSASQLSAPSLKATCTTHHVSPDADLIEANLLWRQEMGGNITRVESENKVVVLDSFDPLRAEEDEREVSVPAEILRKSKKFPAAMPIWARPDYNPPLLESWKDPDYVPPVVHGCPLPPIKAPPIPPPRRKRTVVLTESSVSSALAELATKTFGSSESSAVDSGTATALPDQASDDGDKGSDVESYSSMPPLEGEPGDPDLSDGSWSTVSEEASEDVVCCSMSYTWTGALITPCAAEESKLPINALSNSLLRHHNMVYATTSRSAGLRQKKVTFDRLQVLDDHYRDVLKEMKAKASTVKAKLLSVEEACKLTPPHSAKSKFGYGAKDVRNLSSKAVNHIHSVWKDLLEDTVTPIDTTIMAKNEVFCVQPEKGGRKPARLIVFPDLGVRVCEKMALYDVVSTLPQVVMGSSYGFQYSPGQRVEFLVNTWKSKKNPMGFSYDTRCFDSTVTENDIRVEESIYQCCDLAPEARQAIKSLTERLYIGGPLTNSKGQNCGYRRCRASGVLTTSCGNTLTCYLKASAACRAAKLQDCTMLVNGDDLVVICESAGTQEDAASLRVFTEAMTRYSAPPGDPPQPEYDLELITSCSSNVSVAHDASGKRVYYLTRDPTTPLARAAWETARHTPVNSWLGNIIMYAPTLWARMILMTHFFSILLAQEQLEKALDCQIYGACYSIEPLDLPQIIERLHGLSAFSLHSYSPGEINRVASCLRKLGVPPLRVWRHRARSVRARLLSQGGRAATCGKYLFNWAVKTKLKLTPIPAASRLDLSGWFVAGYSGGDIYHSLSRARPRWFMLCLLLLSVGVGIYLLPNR
pIC50: −log10 of the molar value.
endpoint_name: pIC50

INSERT INTO measurements (compound, endpoint_name, result) VALUES
  ('Cc1ccc(NC(=O)[C@@H](CCCCN)NC(=O)Nc2ccc(OCc3ccccc3)cc2)cc1 [Compound 172]', 'pIC50', '4.30 to 5.00'),
  ('NCCCC[C@H](NC(=O)Nc1ccc(OCc2ccccc2)cc1)C(=O)NCc1ccco1 [Compound 302]', 'pIC50', '< 4.30'),
  ('C=CCOC(=O)NCCCC[C@H](N)C(=O)Nc1ccc(CN(C(=O)c2ccco2)C2CCCCC2)cc1 [Compound 5]', 'pIC50', '< 4.30'),
  ('Cc1cc2cc(NC(=O)[C@H](CCNC(=O)CN)NC(=O)Nc3ccc(OCc4ccccc4)cc3)ccc2[nH]1 [Compound 241]', 'pIC50', '> 5.00'),
  ('NCCCC[C@H](NC(=O)Nc1ccc(OCc2ccccc2)cc1)C(=O)OCCN [Compound 259]', 'pIC50', '< 4.30'),
  ('CCN(CC)c1ccc(NC(=O)[C@H](CCCCN)NC(=O)OCC2c3ccccc3-c3ccccc32)cc1 [Compound 106]', 'pIC50', '< 4.30'),
  ('Cc1ccc(NC(=O)[C@H](CCCCN)NS(=O)(=O)c2cc(Cl)cc(Cl)c2)cc1 [Compound 394]', 'pIC50', '< 4.30'),
  ('Cc1ccc(NC(=O)[C@@H](CCCCN)NC(=O)NCc2ccc(Cl)cc2)cc1 [Compound 169]', 'pIC50', '< 4.30'),
  ('NCCCC[C@H](NC(=O)Cn1cnc2c(NC(=O)c3ccccc3)ncnc21)C(=O)Nc1ccc(CN(C(=O)c2ccco2)C2CCCCC2)cc1 [Compound 46]', 'pIC50', '4.30 to 5.00'),
  ('Cc1ccc(NC(=O)[C@H](CCCCN)NC(=O)CNCc2cccc(F)c2)cc1 [Compound 345]', 'pIC50', '< 4.30'),
  ('NCCCC[C@H](NC(=O)c1cccc2ccccc12)C(=O)Nc1ccc(CN(C(=O)c2ccco2)C2CCCCC2)cc1 [Compound 24]', 'pIC50', '4.30 to 5.00'),
  ('CSCCC(NC(=O)OCC1c2ccccc2-c2ccccc21)C(=O)Nc1ccc(C)cc1 (centres unmarked) [Compound 383]', 'pIC50', '< 4.30'),
  ('Cc1ccc(NC(=O)C(CCCCN)NC(=O)NC(C)c2cccc3ccccc23)cc1 (centres unmarked) [Compound 96]', 'pIC50', '< 4.30'),
  ('Cc1ccc(NC(=O)C(CNC(=O)CN)NC(=O)OCC2c3ccccc3-c3ccccc32)cc1 (centres unmarked) [Compound 115]', 'pIC50', '4.30 to 5.00');
